Hello, the source for this data is paper PMC11129182, in case you need it.

Molecular target: PARK7 (Homo sapiens)
Experiment: High-throughput screen of the crude compound library, PARK7 fluorescence polarization (FP) assay with FP reagent JYQ-107
Format: biochemical
Conditions: 1.25 µM, crude compound library; read-out: HTS FP assay %Inhibition (1.25 µM)
ENDPOINT: inhibition at 1.25 µM (%)
Response body: numeric value in %, unit text excluded.

Report inhibition at 1.25 µM for N#CN1CC[C@@H](C(=O)Nc2nc3c(s2)CN(C(=O)Cc2csc(-c4cnccn4)n2)CC3)C1 please.
71.4

Report inhibition at 1.25 µM for N#CN1CC[C@@H](C(=O)Nc2nc3c(s2)CN(C(=O)CCn2nc(C(F)(F)F)cc2C2CC2)CC3)C1 please.
93.5

Report inhibition at 1.25 µM for N#CN1CC[C@@H](C(=O)Nc2nc3c(s2)CN(C(=O)c2occc2-c2ccccc2)CC3)C1 please.
81.3

Report inhibition at 1.25 µM for CC1CN(c2ccc(C(=O)N3CCc4nc(NC(=O)[C@@H]5CCN(C#N)C5)sc4C3)cn2)CC(C)O1 (stereo partly shown) please.
85.9

Report inhibition at 1.25 µM for N#CN1CC[C@@H](C(=O)Nc2nc3c(s2)CN(C(=O)c2cn(CC4CCOC4)nn2)CC3)C1 (stereo partly shown) please.
82.7

Report inhibition at 1.25 µM for CN(C(=O)c1cccs1)c1ccccc1C(=O)N1CCc2nc(NC(=O)[C@@H]3CCN(C#N)C3)sc2C1 please.
63

Report inhibition at 1.25 µM for N#CN1CC[C@@H](C(=O)Nc2nc3c(s2)CN(C(=O)c2ncoc2C2CC2)CC3)C1 please.
85.7

====

Exercise: state measured inhibition at 1 µM for each of the molecules provided.
Target: PARK7 (Homo sapiens)
Assay: Hit validation and pure-compound testing in the PARK7 FP assay with JYQ-107
Type: biochemical
Settings: crude compounds, 1 µM
Response body: numeric value in %, unit text excluded.

Report inhibition at 1 µM for N#CN1CC[C@@H](C(=O)Nc2nc3c(s2)CN(C(=O)c2cc(C4CCCCC4)[nH]n2)CC3)C1 please.
94.4

Report inhibition at 1 µM for CC(=O)N1CCN(S(=O)(=O)c2cccc(C(=O)N3CCc4nc(NC(=O)[C@@H]5CCN(C#N)C5)sc4C3)c2)CC1 please.
98.3

Report inhibition at 1 µM for N#CN1CC[C@@H](C(=O)Nc2nc3c(s2)CN(C(=O)c2cccc(S(=O)(=O)NC4CC4)c2)CC3)C1 please.
97.5

Report inhibition at 1 µM for N#CN1CC[C@@H](C(=O)Nc2nc3c(s2)CN(C(=O)c2cnn(-c4ccc(Br)cc4)c2)CC3)C1 please.
96.7

Report inhibition at 1 µM for CN(CC1CC1)c1ccc(C(F)(F)F)cc1C(=O)N1CCc2nc(NC(=O)[C@@H]3CCN(C#N)C3)sc2C1 please.
93.7

Report inhibition at 1 µM for Cc1cc(C(=O)N2CCc3nc(NC(=O)[C@@H]4CCN(C#N)C4)sc3C2)ccc1Br please.
95.6

Report inhibition at 1 µM for N#CN1CC[C@@H](C(=O)Nc2nc3c(s2)CN(C(=O)c2cn(C4CCC4)nn2)CC3)C1 please.
93.6

====

Exercise: state measured inhibition at 1.25 µM for each of the compounds provided.
Biological target: PARK7 (Homo sapiens, UniProt Q99497)
Sequence (Q99497 whole entry): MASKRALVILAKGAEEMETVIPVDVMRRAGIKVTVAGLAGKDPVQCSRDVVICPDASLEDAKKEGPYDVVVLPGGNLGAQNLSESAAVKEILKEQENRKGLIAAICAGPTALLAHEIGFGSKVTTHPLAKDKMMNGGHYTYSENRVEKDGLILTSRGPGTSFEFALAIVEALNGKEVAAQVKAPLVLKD
Experiment: High-throughput screen of the crude compound library, PARK7 fluorescence polarization (FP) assay with FP reagent JYQ-107
Format: biochemical
Conditions: 1.25 µM, crude compound library; read-out: HTS FP assay %Inhibition (1.25 µM)
Response body: numeric value in %, unit text excluded.

Report inhibition at 1.25 µM for N#CN1CC[C@@H](C(=O)Nc2nc3c(s2)CN(C(=O)C2CCOC4(CCC4)C2)CC3)C1 (stereo partly shown) please.
80.8

Report inhibition at 1.25 µM for N#CN1CC[C@@H](C(=O)Nc2nc3c(s2)CN(C(=O)c2ccn(-c4ccc(C(F)(F)F)cn4)n2)CC3)C1 please.
67.4

Report inhibition at 1.25 µM for Cc1csc(N2CCCC(C(=O)N3CCc4nc(NC(=O)[C@@H]5CCN(C#N)C5)sc4C3)C2)n1 (stereo partly shown) please.
85.9

Report inhibition at 1.25 µM for N#CN1CC[C@@H](C(=O)Nc2nc3c(s2)CN(C(=O)C2CC4C=CC2O4)CC3)C1 (stereo partly shown) please.
72

Report inhibition at 1.25 µM for N#CN1CC[C@@H](C(=O)Nc2nc3c(s2)CN(C(=O)c2cc(C4CC4)no2)CC3)C1 please.
73.2

Report inhibition at 1.25 µM for N#CN1CC[C@@H](C(=O)Nc2nc3c(s2)CN(C(=O)c2cnn(-c4cccc(Br)c4)c2)CC3)C1 please.
92.6

Report inhibition at 1.25 µM for COc1ccccc1N1CC(C(=O)N2CCc3nc(NC(=O)[C@@H]4CCN(C#N)C4)sc3C2)CCC1=O (stereo partly shown) please.
70

====

Molecular target: PARK7 (Homo sapiens)
Assay: High-throughput screen of the crude compound library, PARK7 fluorescence polarization (FP) assay with FP reagent JYQ-107
Assay type: biochemical
Conditions: 1.25 µM, crude compound library; read-out: HTS FP assay %Inhibition (1.25 µM)
Exercise: state measured inhibition at 1.25 µM for each of the compounds provided.
Response body: numeric value in %, unit text excluded.

Report inhibition at 1.25 µM for N#CN1CC[C@@H](C(=O)Nc2nc3c(s2)CN(C(=O)c2ncoc2-c2ccco2)CC3)C1 [compound 62] please.
78.9

Report inhibition at 1.25 µM for N#CN1CC[C@@H](C(=O)Nc2nc3c(s2)CN(C(=O)Cc2ccc(OCCOc4ccccc4)cc2)CC3)C1 [compound 212] please.
85.1

Report inhibition at 1.25 µM for N#CN1CC[C@@H](C(=O)Nc2nc3c(s2)CN(C(=O)c2cn(CC4CCCO4)nn2)CC3)C1 (stereo partly shown) [compound 186] please.
83.8

Report inhibition at 1.25 µM for Cn1cc(S(=O)(=O)N2CCCC(C(=O)N3CCc4nc(NC(=O)[C@@H]5CCN(C#N)C5)sc4C3)C2)cn1 (stereo partly shown) [compound 114] please.
68.2

Report inhibition at 1.25 µM for N#CN1CC[C@@H](C(=O)Nc2nc3c(s2)CN(C(=O)c2cnoc2-c2cccs2)CC3)C1 [compound 20] please.
73

Report inhibition at 1.25 µM for N#CN1CC[C@@H](C(=O)Nc2nc3c(s2)CN(C(=O)C(Cc2c[nH]cn2)NS(=O)(=O)c2ccc(Cl)cc2)CC3)C1 (stereo partly shown) [compound 7] please.
67.3

Report inhibition at 1.25 µM for Cc1nc(CN2CCCC2C(=O)N2CCc3nc(NC(=O)[C@@H]4CCN(C#N)C4)sc3C2)no1 (stereo partly shown) [compound 43] please.
71.1

====

Target: PARK7 (Homo sapiens, UniProt Q99497)
Assay: Hit validation and pure-compound testing in the PARK7 FP assay with JYQ-107
Format: biochemical
Details: pure compounds, 0.25 µM; read-out: % Inhibition 0.25 µM
ENDPOINT: inhibition at 0.25 µM (%)
Response body: numeric value in %, unit text excluded.

Report inhibition at 0.25 µM for N#CN1CC[C@@H](C(=O)Nc2nc3c(s2)CN(C(=O)c2cccc(S(=O)(=O)NC4CC4)c2)CC3)C1 please.
74.8

Report inhibition at 0.25 µM for Cc1csc(-c2cccc(C(=O)N3CCc4nc(NC(=O)[C@@H]5CCN(C#N)C5)sc4C3)c2)n1 please.
84.2

Report inhibition at 0.25 µM for Cc1cc(C(=O)N2CCc3nc(NC(=O)[C@@H]4CCN(C#N)C4)sc3C2)ccc1Br please.
68.3

Report inhibition at 0.25 µM for N#CN1CC[C@@H](C(=O)Nc2nc3c(s2)CN(C(=O)CN=[N+]=[N-])CC3)C1 [JYQ-88, reference compound] please.
55.4

Report inhibition at 0.25 µM for N#CN1CC[C@@H](C(=O)Nc2nc3c(s2)CN(C(=O)CN2CCOCC2)CC3)C1 please.
62.8

Report inhibition at 0.25 µM for N#CN1CC[C@@H](C(=O)Nc2nc3c(s2)CN(C(=O)c2cnc(-c4cccs4)s2)CC3)C1 please.
67.9

Report inhibition at 0.25 µM for CN1CCN(CC(=O)N2CCc3nc(NC(=O)[C@@H]4CCN(C#N)C4)sc3C2)CC1 please.
53.7

Report inhibition at 0.25 µM for COc1ccc(C(=O)N2CCc3nc(NC(=O)[C@@H]4CCN(C#N)C4)sc3C2)cc1S(=O)(=O)N1CCCCCC1 please.
77.9

Report inhibition at 0.25 µM for N#CN1CC[C@@H](C(=O)Nc2nc3c(s2)CN(C(=O)CN2CCNCC2)CC3)C1 please.
40.2

Report inhibition at 0.25 µM for N#CN1CC[C@@H](C(=O)Nc2nc3c(s2)CN(C(=O)CC2CCNCC2)CC3)C1 please.
38.5
